- Test system: TAB113
- Assay procedure: qHTS profiling for inhibitors of Plasmodium falciparum proliferation (AID 504749);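 note: 0% = DMSO vehicle and full inhibition = artemisinin control; nearly all actives have a fitted effect of over 60% in size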
- Conditions: P. falciparum in erythrocytes, SYBR Green DNA, 72 h; series mostly up to 28.7 µM
- Protocol: NIH National Institute of Allergy and Infectious Diseases [NIAID] NIH Chemical Genomics Center [NCGC] […] Because mature erythrocytes lack DNA, only Plasmodium-derived DNA is detected. NCGC Assay Protocol Summary: The SYBR Green viability assay was adapted from a method described previously (Plouffe et al., 2008). […] The following morning, fluorescence intensity at 485(14) nm excitation and 535(25) nm emission wavelengths was measured on an EnVision (Perkin Elmer) plate reader. […]
Records with an inconclusive call do not appear. Activity calls are given as the source filed them. Calls come from the whole dose curve; as a rule, active = well fitted inhibition curve with a large enough effect; inconclusive = small, poorly fitted or top-dose-only effect; inactive = flat fitted curve, though single readings scatter.
Give your call using only these classes: 1.0 for active, 0.0 for inactive

Molecule	Label value
C=C1C(n2cnc3c(=O)[nH]c(N)nc32)C[C@H](O)[C@H]1CO (some centres not stated)	0.0
OCC1OC(O)C(O)C(O)C1O (configuration not stated)	0.0
Nc1nc(Cl)nc2c1ncn2[C@@H]1O[C@H](CO)[C@H](O)C1F (some centres not stated)	0.0
N#C/C(=C1/SCC(c2ccccc2Cl)S1)n1ccnc1 (configuration not stated)	0.0
C=CCn1c(=O)n(C2OC(CO)C(O)C2O)c2nc(N)[nH]c(=O)c21 (configuration not stated)	0.0
CCCCCOC(=O)Nc1nc(=O)n(C2O[C@H](C)[C@@H](O)[C@@H]2O)cc1F (some centres not stated)	0.0

[Q] Hi team, can someone confirm the assay call for OCC(O)C(O)C(O)C(O)CO (configuration not stated) ?
[A] 0.0

[Q] Hi team, can someone confirm the assay call for CC(CN1CC(=O)NC(=O)C1)N1CC(=O)NC(=O)C1 (configuration not stated) ?
[A] 0.0

====

- Assay procedure: AP1 Signaling Pathway (AID 357);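 note: ME-180 reporter cells stimulated with EGF at its EC50 level; % is set by controls: 0 for no effect and ±100 for the full control effect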
- Conditions: ME-180 (cervical carcinoma) AP-1-bla reporter, EGF-induced, beta-lactamase ratio, 5 h; at 17.2 µM (top of the series) unless noted
Records with an inconclusive call do not appear. Calls of active or inactive are those of the source. Calls follow the shape of the dose curve; as a rule, active = well fitted curve in either direction with a large enough effect (not every such curve was filed as active); inconclusive = small, poorly fitted or top-dose-only effect, or another doubt; inactive = flat fitted curve, though single readings scatter.
Listing: activity change, negative = inhibition of selected compounds

In [3]: df
Out[3]:
                                   compound  experimental_value
0  CCc1cccc(C)c1N(C(=O)Cn1c(=O)[nH]c2ccccc21)C(C)COC (stereo not drawn)   -2.33% (inactive)
1    COC(=O)c1ccc(Cn2c(O)c(N=O)c3ccccc32)o1   -14.4% (inactive)
2           N#CCCN(CCC#N)c1nnc(-c2ccccc2)s1    8.96% (inactive)
3  CCSc1nc2sc3c(c2c2nnc(SCC(=O)NCc4ccco4)n12)CCCC3   -11.8% (inactive)
4  CCC(NC(C)C)C(O)c1ccc(O)c2[nH]c(=O)ccc12 (stereo not drawn)   -12.1% (inactive)

Shift focus to the following entry.
[Q] Item under review: `CC(=O)c1cc(CN2CCCCC2)cc(OC(C)C)c1` . Reported activity change, negative = inhibition?
[A] 15.3% (inactive)

====

- Assay procedure: Cell Viability - LYMP2-004 (AID 966);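 note: cells exposed to compound for 24 h; nearly all actives have a fitted effect of over 65% in size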
- Conditions: LYMP2-004 lymphoblastoid cell viability, qHTS; series mostly up to 92.2 µM
Inconclusive results are not listed. Activity calls are given as the source filed them. Calls follow the shape of the dose curve; as a rule, active = well fitted cell-killing curve with a large enough effect; inconclusive = small, poorly fitted or top-dose-only effect, or effect the other way; inactive = no such curve, though single readings can be large or run the other way.
Give your call using only these classes: TRUE = active, FALSE = inactive

Solved cases (5 shown):
Compound	Label value
O=Cc1ccc(Cl)c(Cl)c1	FALSE
O=C1OC(O)C(C(Cl)Cl)=C1Cl (centres undefined)	TRUE
Cc1cccc(O)c1C	FALSE
c1ccc2c(c1)ccc1cc3c(ccc4ccccc43)cc12	FALSE
CCC(C)Nc1ccc(NC(C)CC)cc1 (centres undefined)	TRUE

[Q] Hi team, can someone confirm the assay call for O=C(/C=C/c1ccc(O)c(O)c1)OC1C[C@](O)(C(=O)O)C[C@@H](O)[C@H]1O (some centres undefined) ?
[A] FALSE

[Q] Hi team, can someone confirm the assay call for `c1ccc2c(c1)-c1cccc3c1c-2cc1ccccc13` ?
[A] FALSE

[Q] Hi team, can someone confirm the assay call for `CO[C@H]1/C=C/O[C@@]2(C)Oc3c(C)c(O)c4c(O)c(c5c(c4c3C2=O)NC2(CCN(CC(C)C)CC2)N=5)=NC(=O)/C(C)=C\C=C\[C@H](C)[C@H](O)[C@@H](C)[C@@H](O)[C@@H](C)[C@H](OC(C)=O)[C@@H]1C` ?
[A] FALSE

[Q] Hi team, can someone confirm the assay call for `CN(C)c1ccc(C2(c3ccc(N(C)C)cc3)OC(=O)c3cc(N(C)C)ccc32)cc1` ?
[A] FALSE

[Q] Hi team, can someone confirm the assay call for `O=C=Nc1ccc(Cc2ccc(N=C=O)cc2)cc1` ?
[A] FALSE

====

- System: ATS189
- Assay procedure: qHTS profiling for inhibitors of Plasmodium falciparum proliferation (AID 504749);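 note: 0% = DMSO vehicle and full inhibition = artemisinin control; nearly all actives have a fitted effect of over 60% in size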
- Conditions: P. falciparum in erythrocytes, SYBR Green DNA, 72 h; series mostly up to 28.7 µM
- Description: NIH National Institute of Allergy and Infectious Diseases [NIAID] NIH Chemical Genomics Center [NCGC] […] Because mature erythrocytes lack DNA, only Plasmodium-derived DNA is detected. NCGC Assay Protocol Summary: The SYBR Green viability assay was adapted from a method described previously (Plouffe et al., 2008). […] The following morning, fluorescence intensity at 485(14) nm excitation and 535(25) nm emission wavelengths was measured on an EnVision (Perkin Elmer) plate reader. […]
Records with an inconclusive call do not appear. The source made the active and inactive calls. Calls come from the whole dose curve; as a rule, active = well fitted inhibition curve with a large enough effect; inconclusive = small, poorly fitted or top-dose-only effect; inactive = flat fitted curve, though single readings scatter.
Give your call using only these classes: active, inactive

Compound	Label value
CCCCN1CC(O)C(O)C(O)C1CO (stereo not given)	inactive
CC(=O)OCC(=O)[C@@]1(O)CCC2C3C[C@H](C)C4=CC(=O)C=CC4(C)C3C(O)CC21C (stereo not given in full)	inactive
OCCN1CC(O)C(O)C(O)C1CO (stereo not given)	inactive

From here, focus on the item given below.
[Q] Hi team, can someone confirm the assay call for NC(CSSCC(N)C(=O)O)C(=O)O (stereo not given) ?
[A] inactive

====

- Assay procedure: NFAT Signaling Pathway (AID 444);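 note: carbachol stimulus at about its EC50 of 1 µM final; % is set by controls: 0 for no effect and ±100 for the full control effect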
- Conditions: Jurkat NFAT-bla M1, carbachol, beta-lactamase ratio, 5 h; at 17.2 µM (top of the series) unless noted
Inconclusive results are not listed.
Measured quantity: activity change, negative = inhibition (%)
Your answer is read as %, so omit the unit and give the number.

Here's what some known entries look like.
                                   molecule                       measured_quantity  experimental_value
0          N#Cc1c(NC(=O)CCC(=O)O)sc2c1CCCC2  activity change, negative = inhibition               -1.33
1  CCOC(=O)c1[nH]c2cc3c(cc2c1NC(=O)CN1CCC2(CC1)OCCO2)OCO3  activity change, negative = inhibition                6.91
2  CC(C)OC(=O)[C@H]1[C@H](c2ccc(Cl)cc2)[C@@](C#N)(C(N)=O)[C@@H]2C=CC(C(N)=O)=CN21  activity change, negative = inhibition               -5.51
3  Cc1ccc(CC2CC(=O)N(c3ccc4c(c3)OCCO4)C2=O)cc1 (stereo unspecified)  activity change, negative = inhibition                 4.5
4  O=C(CC1SC2=NCCN2C1=O)Nc1ccccc1 (stereo unspecified)  activity change, negative = inhibition                  19
5              O=c1cc(NCc2ccccc2)nc2n1CCCS2  activity change, negative = inhibition                  19

[Q] Item under review: `O=C(c1cncc(Br)c1)N1CCCc2ccccc21` . Reported activity change, negative = inhibition?
[A] -6.51

[Q] Item under review: `Nc1cccc(C(=O)O)c1` . Reported activity change, negative = inhibition?
[A] 20.2

[Q] Item under review: `CCOC(=O)c1c(C)[nH]sc1=S` . Reported activity change, negative = inhibition?
[A] -1.05

[Q] Item under review: `Cn1c(=O)[nH]c(=O)c2c1nc(N(CCO)Cc1ccccc1)n2Cc1ccccc1Cl` . Reported activity change, negative = inhibition?
[A] -6.08

[Q] Item under review: `Cn1c(OCc2ccc3c(c2)OCO3)nc2c1c(=O)n(Cc1cccc(Cl)c1)c(=O)n2C` . Reported activity change, negative = inhibition?
[A] 1.55

====

Listing: activity change, negative = inhibition of selected compounds
- Assay procedure: NFAT Signaling Pathway (AID 444);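 note: carbachol stimulus at about its EC50 of 1 µM final; % is set by controls: 0 for no effect and ±100 for the full control effect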
- Conditions: Jurkat NFAT-bla M1, carbachol, beta-lactamase ratio, 5 h; at 17.2 µM (top of the series) unless noted
Inconclusive results are not listed. The source made the active and inactive calls. Calls come from the whole dose curve; as a rule, active = well fitted curve in either direction with a large enough effect (not every such curve was filed as active); inconclusive = small, poorly fitted or top-dose-only effect, or another doubt; inactive = flat fitted curve, though single readings scatter.

[Q] Item under review: `CN1CCN(Cc2c(O)c(Cl)cc3c(-c4ccccc4)cc(=O)oc23)CC1` . Reported activity change, negative = inhibition?
[A] -1.47% (inactive)

[Q] Item under review: `Cn1cc(Br)cc2nc(C(F)(F)F)nc1-2` . Reported activity change, negative = inhibition?
[A] -3.67% (inactive)

[Q] Item under review: `Nc1ccc2[nH]ncc2c1` . Reported activity change, negative = inhibition?
[A] -1.96% (inactive)

Reference source: PubChem BioAssay (NCATS)
